Every entry's value here was drawn from PubChem BioAssay AID2060486.

- Tested on: IGROV1 complex spheroids (HUVEC, MSC), viability % test/control
- MEASUREMENT PROTOCOL: Anticancer human tumor IGROV1 cell line growth inhibition [GQUAD];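 also: spheroids exposed to compounds for 7 days before readout; 100% = DMSO vehicle control viability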
- MEASUREMENT SETUP: second compound 0.316 µM; first compound 0.0316 µM; stronger effect = lower value
PARAMETER: viability, T/C

Study these solved cases before continuing.
| COMPOUND | ASSAY RESULT |
| --- | --- |
| Cn1ncnc1[C@H]1c2n[nH]c(=O)c3cc(F)cc(c23)N[C@@H]1c1ccc(F)cc1 + Cc1[nH]c2ccc(F)cc2c1-c1nc2c3cccnc3c3ncccc3c2[nH]1 | 54.8% |
| O=C(c1cc(Cc2n[nH]c(=O)c3ccccc23)ccc1F)N1CCN(C(=O)C2CC2)CC1 + Cc1[nH]c2ccc(F)cc2c1-c1nc2c3cccnc3c3ncccc3c2[nH]1 | 72.9% |
| C#Cc1c(F)ccc2cc(O)cc(-c3ncc4c(N5CC6CCC(C5)N6)nc(OCC56CCCN5CC(F)C6)nc4c3F)c12 (stereo not given) + Cc1cnc(CNC(=O)c2c(=O)c3ccc(N4CCCN(C)CC4)nc3n3c2sc2ccccc23)cn1 | 21.4% |
| Cc1[nH]c2ccccc2c1CCNCc1ccc(/C=C/C(=O)NO)cc1 + Cc1cnc(CNC(=O)c2c(=O)c3ccc(N4CCCN(C)CC4)nc3n3c2sc2ccccc23)cn1 | 15% |

Proceeding to the next compound to report its viability, T/C.
Qu. Look up viability, T/C with IGROV1 complex spheroids (HUVEC, MSC), viability % test/control for this compound: Cn1ncnc1[C@H]1c2n[nH]c(=O)c3cc(F)cc(c23)N[C@@H]1c1ccc(F)cc1 + Cc1cnc(CNC(=O)c2c(=O)c3ccc(N4CCCN(C)CC4)nc3n3c2sc2ccccc23)cn1
Ans. 16.8%
